Target: T1, Unprocessed hMPV PreF trimer (human metapneumovirus, strain B2)
T1 construct: also called Unprocessed hMPV WT PreF trimer; unprocessed hMPV PreF trimeric antigen
Assay: BLI, mAb on anti-human Fc sensor
Outcome label depends on Octet binding response relative to 0.3 nm: at/above gives T, below gives F.

binder="M3C11 (antibody, V domains shown, IgG) VH: QVQLQESGPGLVKPSETLSLTCTVSGGSLSSYCWSWIRQPPGKGLEWIGYIYYSGGTNYNPSLKSRVTISVDTSKNQFSLNLSSVTAADTAVYYCARGEASGYLNYYFDYWGQGTLVAVSS VL: SYELTQPPSVSVSPGQTASITCSGHKLGDKYAYWYQQKPGQSPVLVIYQDNKRPSGIPERFSGSNSGNTATLTISGTQAMDEADYYCQAWDSGTVFGGGTKLTVL" category=T
binder="M2D03 (antibody, V domains shown, IgG) VH: QVQLQESGPGLVAPSQTLSLICDVSGDSVTSGAHSWSWIRQHPVKGLEWIAYINYSGRTNYNPSLQSRLVISVDRSKNQFSLRLSSVTAADTAVYYCARANVVGYSGYYFDYWGQGTLVAVSS VL: DIQMTQSPSSLSASVGDRVTITCRASQSVGAYLNWYQQKPGKAPKLLIFAGSSLQTGVPSRFSGRGSRTEFTLTISNLQREDFATYYCQQSLGDFLTFGGGTKVEIK" category=T
binder="M3E10 (antibody, V domains shown, IgG) VH: QVQLVQSGAEVKKPGSSVKVSCKASGGTINSYAISWVRQAPGQGPEWLGGIIPIFGTANYAQNFPGRVTITADASTSTVYMELSSLRSDDTAIYYCARGTRYIAVMVPSMQDYYFFGMDVWGQGTTVTVSS VL: DIQLTQSPSFLSASVGDRVTITCRASQGISSYLAWYQQKPGQAPKLLIYAASTLQSGVPSRFSGSGSGTEFTLTISSLQPEDFATYYCQQVTSYPFSITFGQGTRLEIK" category=T
binder="M2A02 (antibody, V domains shown, IgG) VH: QVQLVQSGAEVKRPGSSVKVSCKASGDIFSSHAISWVRQTPGQGLKWMGRIIPLVGIRNYAQDLQGRVTISADKSINTVYMELTNLRFDDTAVYYCARDRTDWSGGLDIWGQGTRVTVSS VL: EIVLTQSPATLSLSPGERATLSCRASQRIGSYLAWYQQKPGQAPRLLIYDASNRATGIPARFSGSGSGTDFTLTISRLEPEDSAIYYCQQRTDWFTFGGGTKVEIK" category=F
binder="M4A10 (antibody, V domains shown, IgG) VH: QVQLVQSGAEVKKPGASVKVSCKASGYTFNGHYLHWVRQAPGQGLEWMGWINPNSGGTDYAQRFQGRVTMTRGTSISTAYMELSRLTSDDTAVYFCARDNFGFWSASSGRHNWLDSWGQGTLVIVSS VL: NFMLTQPHSVSESPGKTVTISCTRSTGNIASNYVQWYQQRPGSSPTTVIYEDNQRPSAVPDRFSGSIDSSSNSASLTVSGLRTEDEADYYCQSYDSGHHVVFGGGTKLTVL" category=T
binder="M2B06 (antibody, V domains shown, IgG) VH: QVQLQESGPRLVKPSGTLSLTCAVSGASITSSHWWTWVRQPPGKGLEWIGRIFHSGSTNYNPSLKSRVTISLDKSRNQFSLTLTSVTAADTAVYYCARDDQIVVMPAGFDRWGQGALVIVSS VL: DIQMTQSPSSLSASVGDRVTITCRASQTISSYLNWYQQTPGKAPNLLIYGASRLQGGVPSRFSGSGSGTDFTLTISSLQPEDFAIYFCQQSKSIPYTFGQGTRLEIK" category=T
binder="M3E05 (antibody, V domains shown, IgG) VH: EVQLVESGGSVIQPGGSLRLSCAASGFSVRTNYMNWVRQAPGKGLEWVSVIYSDGRTYYSDSVKGRFTISRDNSMNNVFLQMNSLRAEDTAVYYCARDPTFYSSSWWYLDHWGQGTQVTVSS VL: SYELTQALSVSVARGQTAKITCGGNNIGVRNVHWYQQKPGQAPVLVIYRDNIRPSGIPERFSGSNSGNMAALTISSAQEGDEADYYCQVWDSNTAHVIFGGGTKLTVL" category=F
binder="M2E07 (antibody, V domains shown, IgG) VH: EVQLVESGGGLVQTGGSLRLACAASGFTFSSYAMSWVRQAPGKGLEWVSTITESGDDAYYADSVKGRLTISRDNSKNTLFLHLNGLRSEDTARYYCAKDMGLYKSSWYGNFFYYYYMDVWGEGTTVTVSS VL: QSALTQPASVSGSPGQSITISCTGSSSNIGSFDLISWYQQHPGKAPKFIIYEGDKRPSGVSYRFSGSKSGSTASLTISGLQAEDEAYYYCCSYARSRTLVFGGGTKVTVL" category=F
binder="M2B05 (antibody, V domains shown, IgG) VH: QVQLQQWGAGLLRPSETLSLTCTVYGGSFGGYHWSWIRQSPGKGLEWIGEIDHGGNTNFNPSLKSRVTISVDRSKKQFSLKLTSVTAADTAVYYCARGFGVVINNWFDPWGQGTLVTVSS VL: DIQMTQSPSSLSASVGDRVTITCRASQTINSYLNWYQQKPGKAPTLLIYTVSSLQSGVPSRFSGSGSGTVFSLTISSLQPEDFATYYCQQSYNSPYTFGQGTKLEIK" category=T
binder="M3D05 (antibody, V domains shown, IgG) VH: QVQLVQSGAEVKQPGASVKVSCKASGYTFSGYYIQWVRQAPGQGLEWMGWINPNSGGTNFAQKFQGRVTMTSDTSTSAAYMELSSLRSDDTAVYYCVRGQQLTRQYYFGMDVWGQGTTVTVSS VL: QSVLTQPPSVSGAPGQRVIISCSGSSSNIRSNAVNWYQQLPGKAPKLLIFYDGLLPSGVSDRFSGSKTGNSASLAISGLQSEDEADYYCAAWDDSLNGPVFGGGTKLTVL" category=T

Every entry's value here was drawn from patent US20240327502A1.
